Data origin: patent US20180016324A1

Target: T1, ZIKV (prM80E) with a C-terminal myc-myc-hexahistidine tag (Zika virus, UniProt A0A024B7W1 104-694)
T1 construct: also called ZIKV (prM80E)-mmH; ZIKV-mmH
Assay: SPR, mAb captured, 37C, pH 5.0 chase
Tag: condition met if measured koff is not below 0.02 s⁻¹, condition not met if it is.

INSERT INTO results (binder, answer_label) VALUES
  ('H4H25592P (antibody, V domains shown) VH: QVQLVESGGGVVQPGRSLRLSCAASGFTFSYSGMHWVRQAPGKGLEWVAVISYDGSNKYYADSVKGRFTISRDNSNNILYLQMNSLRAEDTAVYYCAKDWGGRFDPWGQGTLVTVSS VL: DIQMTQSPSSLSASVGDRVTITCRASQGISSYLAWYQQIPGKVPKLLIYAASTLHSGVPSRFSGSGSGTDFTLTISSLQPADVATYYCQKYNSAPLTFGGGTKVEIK', 'condition not met');

### Prompt Answer whether koff of H4H25710N (antibody, V domains shown) VH: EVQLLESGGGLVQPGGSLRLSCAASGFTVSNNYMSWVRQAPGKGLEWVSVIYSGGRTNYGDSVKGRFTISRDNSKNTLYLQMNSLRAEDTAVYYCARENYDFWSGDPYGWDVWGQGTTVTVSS VL: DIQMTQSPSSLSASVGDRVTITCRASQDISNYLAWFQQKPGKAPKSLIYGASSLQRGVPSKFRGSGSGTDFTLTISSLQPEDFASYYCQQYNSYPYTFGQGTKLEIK is greater than or equal to 0.02 s⁻¹.
### Response condition met

### Prompt Answer whether koff of H4H25587P (antibody, V domains shown) VH: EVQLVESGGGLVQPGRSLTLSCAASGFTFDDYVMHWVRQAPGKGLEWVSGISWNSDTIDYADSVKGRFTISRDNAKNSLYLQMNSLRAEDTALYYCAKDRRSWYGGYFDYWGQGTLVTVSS VL: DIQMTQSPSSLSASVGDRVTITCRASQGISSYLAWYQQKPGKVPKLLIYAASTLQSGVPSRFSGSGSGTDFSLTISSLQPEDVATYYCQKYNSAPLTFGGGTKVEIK is greater than or equal to 0.02 s⁻¹.
### Response condition not met

### Prompt Answer whether koff of H4H25641P (antibody, V domains shown) VH: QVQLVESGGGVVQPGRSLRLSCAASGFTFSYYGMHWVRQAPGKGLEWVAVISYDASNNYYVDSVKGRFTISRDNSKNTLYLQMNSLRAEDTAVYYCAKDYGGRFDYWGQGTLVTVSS VL: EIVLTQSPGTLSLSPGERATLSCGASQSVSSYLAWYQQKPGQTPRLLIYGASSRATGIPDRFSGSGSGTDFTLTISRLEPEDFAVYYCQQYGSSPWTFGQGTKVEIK is greater than or equal to 0.02 s⁻¹.
### Response condition not met

### Prompt Answer whether koff of H4H25602P (antibody, V domains shown) VH: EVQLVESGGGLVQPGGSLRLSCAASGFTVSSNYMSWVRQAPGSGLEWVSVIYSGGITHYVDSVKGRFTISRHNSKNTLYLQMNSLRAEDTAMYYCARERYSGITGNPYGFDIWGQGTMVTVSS VL: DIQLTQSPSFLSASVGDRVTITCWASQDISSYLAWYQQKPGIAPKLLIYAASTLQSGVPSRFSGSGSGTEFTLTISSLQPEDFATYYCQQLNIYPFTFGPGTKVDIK is greater than or equal to 0.02 s⁻¹.
### Response condition met
